# IFN-γ ELISpot response (raw SFU) per entry
Test system: Patient 2 TCC-01
Test Protocol: IFN-γ ELISpot with T cell clone
Type: cell-based, human
Condition Parameters: TCC Patient 2 TCC-01, peptide 50 μg/mL
Where no end group is shown, it is not given here. [ ]: non-standard residue; d: D form. pGlu = O=C1CC[C@@H](C(=O)O)N1
Measure: IFN-γ ELISpot response (raw SFU)

Residue Sequence	Assay System	Unit Tag	Endpoint Value
YQPYPEQEQPILQQ	Patient 2 TCC-01	SFU	300
PEQPIPEQPQPYPQQ	Patient 2 TCC-01	SFU	1
PEQPFPEQPQPYPQQP (not fully specified (C-terminus))	Patient 2 TCC-01	SFU	202
LQPFPQPELPYPQPQ [reference compound]	Patient 2 TCC-01	SFU	0
QPQPYPEQPQPYP ([pGlu]PQPYPEQPQPYP-NH2; SMILES NC(=O)CC[C@H](NC(=O)[C@H](CCC(=O)O)NC(=O)[C@@H]1CCCN1C(=O)[C@H](Cc1ccc(O)cc1)NC(=O)[C@@H]1CCCN1C(=O)[C@H](CCC(N)=O)NC(=O)[C@@H]1CCCN1C(=O)[C@@H]1CCC(=O)N1)C(=O)N1CCC[C@H]1C(=O)N[C@@H](CCC(N)=O)C(=O)N1CCC[C@H]1C(=O)N[C@@H](Cc1ccc(O)cc1)C(=O)N1CCC[C@H]1C(N)=O)	Patient 2 TCC-01	SFU	316

====

Tested on: Patient 2 TCC-02
Test Protocol: IFN-γ ELISpot with T cell clone
Assay type: cell-based, human
Condition Parameters: TCC Patient 2 TCC-02, peptide 25 μg/mL
Where no end group is shown, it is not given here. [ ]: non-standard residue; d: D form. pGlu = O=C1CC[C@@H](C(=O)O)N1
# IFN-γ ELISpot response (SFU) per entry
Measure: IFN-γ ELISpot response (SFU)

Residue Sequence	Measure	Unit Tag	Endpoint Value
PEQPFPEQPQPYPQQP (not fully specified (C-terminus))	IFN-γ ELISpot response (SFU)	SFU	5
QPQPYPEQPQPYP ([pGlu]PQPYPEQPQPYP-NH2; SMILES NC(=O)CC[C@H](NC(=O)[C@H](CCC(=O)O)NC(=O)[C@@H]1CCCN1C(=O)[C@H](Cc1ccc(O)cc1)NC(=O)[C@@H]1CCCN1C(=O)[C@H](CCC(N)=O)NC(=O)[C@@H]1CCCN1C(=O)[C@@H]1CCC(=O)N1)C(=O)N1CCC[C@H]1C(=O)N[C@@H](CCC(N)=O)C(=O)N1CCC[C@H]1C(=O)N[C@@H](Cc1ccc(O)cc1)C(=O)N1CCC[C@H]1C(N)=O)	IFN-γ ELISpot response (SFU)	SFU	1

====

Test system: Patient 14 TCC-01
Test Protocol: IFN-γ ELISpot with T cell clone
Type: cell-based, human
Condition Parameters: TCC Patient 14 TCC-01, peptide 50 μg/mL
Where no end group is shown, it is not given here. [ ]: non-standard residue; d: D form. pGlu = O=C1CC[C@@H](C(=O)O)N1
# IFN-γ ELISpot response (raw SFU) per entry
Measure: IFN-γ ELISpot response (raw SFU)

Residue Sequence	Endpoint Value
YQPYPEQEQPILQQ	18
LQPFPQPELPYPQPQ [reference compound]	22
PEQPFPEQPQPYPQQP (not fully specified (C-terminus))	66
PEQPIPEQPQPYPQQ	48
QPQPYPEQPQPYP ([pGlu]PQPYPEQPQPYP-NH2; SMILES NC(=O)CC[C@H](NC(=O)[C@H](CCC(=O)O)NC(=O)[C@@H]1CCCN1C(=O)[C@H](Cc1ccc(O)cc1)NC(=O)[C@@H]1CCCN1C(=O)[C@H](CCC(N)=O)NC(=O)[C@@H]1CCCN1C(=O)[C@@H]1CCC(=O)N1)C(=O)N1CCC[C@H]1C(=O)N[C@@H](CCC(N)=O)C(=O)N1CCC[C@H]1C(=O)N[C@@H](Cc1ccc(O)cc1)C(=O)N1CCC[C@H]1C(N)=O)	27
